Assay Target: CYP3A4 (Homo sapiens)
Sequence (P08684 whole entry): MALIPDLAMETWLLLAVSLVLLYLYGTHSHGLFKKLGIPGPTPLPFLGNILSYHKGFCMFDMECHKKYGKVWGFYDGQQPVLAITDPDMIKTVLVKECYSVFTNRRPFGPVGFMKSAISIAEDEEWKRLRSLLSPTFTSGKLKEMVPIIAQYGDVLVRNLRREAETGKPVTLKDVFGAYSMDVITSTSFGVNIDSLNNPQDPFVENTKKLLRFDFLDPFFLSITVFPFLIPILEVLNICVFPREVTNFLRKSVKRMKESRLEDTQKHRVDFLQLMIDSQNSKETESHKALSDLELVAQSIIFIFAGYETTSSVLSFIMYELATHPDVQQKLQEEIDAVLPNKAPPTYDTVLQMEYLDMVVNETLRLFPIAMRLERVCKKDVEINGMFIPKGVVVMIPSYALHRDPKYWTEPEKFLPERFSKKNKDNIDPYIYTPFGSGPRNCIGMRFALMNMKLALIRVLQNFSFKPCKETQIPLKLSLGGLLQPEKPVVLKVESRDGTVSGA
Test Name: CYP3A4 assay with LVS as substrate (LC-MS/MS)
Format: in vitro ADME
Test Settings: substrate LVS 10 µM; read-out: IC50, formation of 6′β-hydroxy LVS by CYP3A4
pIC50: −log10 of the molar value.
Measured Metric: pIC50

[ask] // pIC50 lookup, key: `Clc1ccccc1C(c1ccccc1)(c1ccccc1)n1cccn1`
[reply] ~6.00

====

Assay Target: CYP2C11 (Rattus norvegicus, UniProt P08683)
Sequence (P08683 whole entry): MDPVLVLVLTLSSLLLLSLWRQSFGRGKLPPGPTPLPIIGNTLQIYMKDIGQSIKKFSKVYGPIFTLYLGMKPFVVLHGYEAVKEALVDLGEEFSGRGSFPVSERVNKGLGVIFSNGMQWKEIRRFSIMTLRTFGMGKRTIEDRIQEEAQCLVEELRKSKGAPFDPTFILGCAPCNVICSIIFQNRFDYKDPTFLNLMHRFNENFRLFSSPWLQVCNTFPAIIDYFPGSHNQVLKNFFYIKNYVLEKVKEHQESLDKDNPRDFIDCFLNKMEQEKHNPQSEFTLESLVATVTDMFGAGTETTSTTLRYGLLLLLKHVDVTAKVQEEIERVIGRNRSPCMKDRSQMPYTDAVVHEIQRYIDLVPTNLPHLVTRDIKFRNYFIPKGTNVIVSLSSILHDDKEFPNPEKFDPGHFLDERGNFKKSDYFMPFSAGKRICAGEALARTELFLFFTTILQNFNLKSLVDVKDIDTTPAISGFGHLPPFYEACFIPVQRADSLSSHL
Test Name: Fluorescence-based CYP assay, recombinant CYP2C11, substrate DBF
Measured Metric: IC50 (µM)
Give bare numbers, in µM.

[ask] // IC50 lookup, key: Clc1ccccc1C(c1ccccc1)(c1ccccc1)n1cccn1 [TRAM-34]
[reply] 12.6
